system: Human alphaherpesvirus 1; assay: Inhibitory index against HSV-1 ribonucleotide reductase
Metric: Inhibitory index
Answers are plain numbers.

Some solved cases for reference:
C/C(=N\N/C(S)=N/N=C(\S)N(C)C)c1ccccn1; 14
C/C(=N\Nc1nnc(Nc2ccccc2Cl)s1)c1ccccn1; 32
C/C(=N\N=C(/S)N/N=C(\S)Nc1ccc(C#N)cc1)c1ccccn1; 29

Batch of 5 compounds: report Inhibitory index for each.
1. C/C(=N\N=C(/S)N/N=C(\S)Nc1cc(Cl)ccc1Cl)c1ccccn1
2. C/C(=N\N=C(/S)N/N=C(\S)Nc1ccc(Cl)cc1C)c1ccccn1
3. C/C(=N\N=C(/S)N/N=C(\S)Nc1ccccc1Cl)c1cccc[n+]1[O-]
4. C/C(=N\N=C(/S)N/N=C(\S)Nc1ccc(Cl)c([N+](=O)[O-])c1)c1ccccn1
5. C/C(=N\NC(=O)N/N=C(\S)Nc1ccccc1Cl)c1ccccn1

Result:
1. 59
2. 42
3. 1.2
4. 48
5. 7.5

====

For each of the molecules below, state its kinact.
system: Human alphaherpesvirus 1; experiment: Inactivation of HSV-1 ribonucleotide reductase at rate constant K inact

// input: 3 molecules below; output: kinact for each
1. C/C(=N\N=C(/S)N/N=C(\S)Nc1ccccn1)c1ccccn1
2. C/C(=N\N=C(/S)N/N=C(\S)Nc1ccc(Br)cc1)c1ccccn1
3. C/C(=N\N=C(/S)N/N=C(\S)Nc1ccccc1I)c1ccccn1

Result:
["28 h⁻¹", "44 h⁻¹", "29 h⁻¹"]

====

target: Ribonucleoside-diphosphate reductase RR1 (Homo sapiens) (UniProt P23921+Q7LG56+P31350); test: Apparent enzyme activity measured as the ratio of HSV-1 and human enzyme inhibition induces; type: functional; conditions: Human alphaherpesvirus 1
Metric: Apparent selectivity (HSV-1/human inhibition index ratio)
Give bare numbers.

C/C(=N\N=C(/S)N/N=C(\S)Nc1cc(Cl)ccc1Cl)c1ccccn1; 240
C/C(=N\N=C(/S)N/N=C(\S)Nc1cccc(C)c1)c1ccccn1; 23
CC(C)C/C(=N\N=C(/S)N/N=C(\S)Nc1ccccc1Cl)c1ccccn1; 70
C/C(=N\N=C(/S)N/N=C(\S)Nc1ccc(Cl)cc1C)c1ccccn1; 12
C/C(=N\N=C(/S)N/N=C(\S)Nc1cccc(Br)c1)c1ccccn1; 17

Provide Apparent selectivity (HSV-1/human inhibition index ratio) values for the following items, in order.
1. COc1cccc(N/C(S)=N/N=C(\S)N/N=C(\C)c2ccccn2)c1
2. C/C(=N\N=C(/S)N/N=C(\S)Nc1cccc(Cl)c1)c1ccccn1
3. C/C(=N\N=C(/S)N/N=C(\S)Nc1cccc(I)c1)c1ccccn1
4. C/C(=N\N=C(/S)N/N=C(\S)Nc1ccc([N+](=O)[O-])cc1)c1ccccn1
5. COc1ccc(Cl)cc1/N=C(\S)N/N=C(\S)N/N=C(\C)c1ccccn1

Result:
[1.3, 80, 10, 9.1, 66]

====

target: Ribonucleoside-diphosphate reductase RR1 (Homo sapiens) (UniProt P23921+Q7LG56+P31350); assay: Inactivation of human ribonucleotide reductase at rate constant K inact; type: protein-complex assay
Metric: kinact (h⁻¹)
Numbers only, in h⁻¹.

O=C(NNC(=S)N/N=C/c1ccccn1)Nc1ccccc1Cl; 0
C/C(=N\N=C(/S)N/N=C(\S)Nc1ccc(Cl)cc1C)c1ccccn1; 1
C/C(=N\N=C(/S)N/N=C(\S)Nc1ccc([N+](=O)[O-])cc1)c1ccccn1; 1.3
Cc1cccc(/C=N/N=C(\S)N/N=C(\S)Nc2ccccc2Cl)n1; 0
COc1ccc(N/C(S)=N/N=C(\S)N/N=C(\C)c2ccccn2)cc1; 0

Below are 5 molecules. Give each one its kinact.
1. C/C(=N\N=C(/S)N/N=C(\S)Nc1ccc(C(F)(F)F)cc1)c1ccccn1
2. C/C(=N\N=C(/S)N/N=C(\S)Nc1cccc(C(F)(F)F)c1)c1ccccn1
3. C/C(=N\N=C(/S)N/N=C(\S)Nc1cccc(C#N)c1)c1ccccn1
4. C/C(=N\N=C(/S)N/N=C(\S)Nc1ccccc1Cl)c1ccccn1
5. COc1c(Cl)cccc1/N=C(\S)N/N=C(\S)N/N=C(\C)c1ccccn1

Result:
0
1
0.6
0
0

Batch lookup, kinact per entry.
1. C/C(=N\N=C(/S)N/N=C(\S)Nc1ccccc1C(F)(F)F)c1ccccn1
2. C/C(=N\N=C(/S)N/N=C(\S)Nc1cccc(I)c1)c1ccccn1
3. C/C(=N\N=C(/S)N/N=C(\S)Nc1cccc(Cl)c1Cl)c1ccccn1
4. C/C(=N\N=C(/S)N/N=C(\S)Nc1ccc(C#N)cc1)c1ccccn1
5. C/N=C(\S)N/N=C(\S)N/N=C(\C)c1ccccn1
6. C/C(=N\N=C(/S)N/N=C(\S)Nc1ccc(C)cc1)c1ccccn1
7. C/C(=N\N=C(/S)N/N=C(\S)Nc1ccc(I)cc1)c1ccccn1
8. C/C(=N\N=C(/S)N/N=C(\S)Nc1ccccc1I)c1ccccn1

Result:
3
3
0
0
0.1
2
0
4

Go through the items and report each one's kinact.
1. C/C(=N\N=C(/S)N/N=C(\S)Nc1ccc(Cl)cc1)c1ccccn1
2. C/C(=N\N=C(/S)N/N=C(\S)Nc1ccc(Cl)c([N+](=O)[O-])c1)c1ccccn1
3. C/C(=N\N=C(/S)N/N=C(\S)Nc1cccc(Cl)c1)c1ccccn1

Result:
0
0
0

Okay, here is my list. What is kinact for each of these?
1. C/C(=N\N=C(/S)N/N=C(\S)Nc1cccc(Br)c1)c1ccccn1
2. C/C(=N\N=C(/S)N/N=C(\S)Nc1ccc(Br)cc1)c1ccccn1

Result:
1: 2; 2: 2

====

biological target: Ribonucleoside-diphosphate reductase RR1 (Homo sapiens) (UniProt P23921+Q7LG56+P31350); assay: Inhibition of human ribonucleotide reductase; type: protein-complex assay; design: concentration or dose not given beside the values; details: concentration not given here
Metric: inhibition (%)
Give bare numbers, in %.

Below, 9 compounds whose answers are already recorded.
C/C(=N\N=C(/S)N/N=C(\S)Nc1ccc(Br)cc1)c1ccccn1; 29
C/C(=N\N=C(/S)N/N=C(\S)Nc1cc(Cl)ccc1Cl)c1ccccn1; 20
C/C(=N\N=C(/S)N/N=C(\S)Nc1ccccc1I)c1ccccn1; 23
C/C(=N\N=C(/S)N/N=C(\S)Nc1ccc([N+](=O)[O-])cc1)c1ccccn1; 56
C/C(=N\N=C(/S)N/N=C(\S)Nc1ccccc1C(F)(F)F)c1ccccn1; 43
C/C(=N\N=C(/S)N/N=C(\S)Nc1ccc(C#N)cc1)c1ccccn1; 64
C/C(=N\N=C(/S)N/N=C(\S)Nc1cccc(I)c1)c1ccccn1; 7
C/C(=N\N=C(/S)N/N=C(\S)Nc1ccccc1Cl)c1ccccn1; 57
COc1ccccc1/N=C(\S)N/N=C(\S)N/N=C(\C)c1ccccn1; 44

# ---- query compound ----
Request: Using known records, supply inhibition for C/C(=N\N/C(S)=N/N=C(\S)N(C)C)c1ccccn1
Result: 8

====

target: Ribonucleoside-diphosphate reductase RR1 (Homo sapiens) (UniProt P23921+Q7LG56+P31350); assay: Inhibitory index against human ribonucleotide reductase; format: protein-complex assay
Assign class by Inhibitory index: not lower than 3 means t; lower than 3 means f.

C/C(=N\N=C(/S)N/N=C(\S)Nc1ccc([N+](=O)[O-])cc1)c1ccccn1; t
C/C(=N\N=C(/S)N/N=C(\S)Nc1ccccc1I)c1ccccn1; t
C/C(=N\N=C(/S)N/N=C(\S)Nc1cccc(Cl)c1Cl)c1ccccn1; f
C/N=C(\S)N/N=C(\S)N/N=C(\C)c1ccccn1; f
C/C(=N\N=C(/S)N/N=C(\S)NC1CCCC1)c1ccccn1; t
COc1ccccc1/N=C(\S)N/N=C(\S)N/N=C(\C)c1ccccn1; t
S=C(N/N=C/c1ccccn1)NNC(=S)Nc1ccccc1Cl; f
C/C(=N\N=C(/S)N/N=C(\S)Nc1ccc(I)cc1)c1ccccn1; f
C/C(=N\N=C(/S)N/N=C(\S)Nc1ccc(Cl)cc1C)c1ccccn1; t
C/C(=N\N=C(/S)N/N=C(\S)Nc1cccc(C#N)c1)c1ccccn1; t

Request: Decide: is the reported value of Inhibitory index for C/C(=N\N=C(/S)N/N=C(\S)Nc1cccc(C(F)(F)F)c1)c1ccccn1 equal to or greater than 3?
Result: f

Request: Please tell me: is the molecule C/C(=N\N=C(/S)N/N=C(\S)Nc1ccc(C#N)cc1)c1ccccn1 at or over 3 in terms of Inhibitory index?
Result: f

Request: Does the molecule C/C(=N\N=C(/S)N/N=C(\S)Nc1cc(Cl)c(Cl)cc1Cl)c1ccccn1 have recorded Inhibitory index that is 3 or more?
Result: f

Request: Record C/C(=N\N=C(/S)N/N=C(\S)Nc1ccc(Br)cc1)c1ccccn1 ; criterion: Inhibitory index no lower than 3. Met?
Result: t

Request: Does Inhibitory index meet or surpass 3 for C/C(=N\N=C(/S)N/N=C(\S)Nc1cccc(Br)c1)c1ccccn1 ?
Result: f

Request: Quick check, Inhibitory index >= 3? COc1ccc([N+](=O)[O-])cc1/N=C(\S)N/N=C(\S)N/N=C(\C)c1ccccn1
Result: t

Request: Please indicate if the recorded Inhibitory index for C/C(=N\N=C(/S)N/N=C(\S)Nc1ccc(Cl)cc1)c1ccccn1 meets or exceeds 3.
Result: f

Request: Is reported Inhibitory index greater than or equal to 3 here: C/C(=N\N=C(/S)N/N=C(\S)Nc1ccccc1C(F)(F)F)c1ccccn1
Result: t

Request: Quick check, Inhibitory index >= 3? C/C(=N\N=C(/S)N/N=C(\S)Nc1cc(Cl)ccc1Cl)c1ccccn1
Result: f

Request: Threshold query (Inhibitory index >= 3) on C/C(=N\N/C(S)=N/N=C(\S)N(C)C)c1ccccn1
Result: t

Request: Is the recorded value of Inhibitory index equal to or greater than 3 for this molecule? Cc1cccc(/C=N/N=C(\S)N/N=C(\S)Nc2ccccc2Cl)n1
Result: f

Request: Answer whether Inhibitory index of C/C(=N\N=C(/S)N/N=C(\S)Nc1cccc(I)c1)c1ccccn1 is greater than or equal to 3.
Result: t

Request: Please check the record C/C(=N\N=C(/S)N/N=C(\S)Nc1ccccc1Cl)c1ccccn1 and state if its Inhibitory index is at or above 3.
Result: f

Request: Reported Inhibitory index at or above 3? COc1ccc(N/C(S)=N/N=C(\S)N/N=C(\C)c2ccccn2)cc1
Result: f
